Assay target: Human IDO1 (Homo sapiens)
Sequence (P14902 whole entry): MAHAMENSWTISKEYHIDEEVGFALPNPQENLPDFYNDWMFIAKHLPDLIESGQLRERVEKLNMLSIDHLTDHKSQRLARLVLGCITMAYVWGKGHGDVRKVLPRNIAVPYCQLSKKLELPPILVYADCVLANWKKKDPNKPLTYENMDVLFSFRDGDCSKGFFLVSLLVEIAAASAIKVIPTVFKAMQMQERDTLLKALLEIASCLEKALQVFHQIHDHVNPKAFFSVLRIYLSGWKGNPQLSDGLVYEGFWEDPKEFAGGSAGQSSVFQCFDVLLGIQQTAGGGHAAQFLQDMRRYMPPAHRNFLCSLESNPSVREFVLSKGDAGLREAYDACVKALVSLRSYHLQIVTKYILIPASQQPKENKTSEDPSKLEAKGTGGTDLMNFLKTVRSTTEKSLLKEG
Assay summary: IDO Kynurenine Assay with Human IDO1/HEK293 Cells
Condition details: read-out: HEK human IDO-1 (IC50)
pIC50: −log10 of the molar value.
Measured metric: pIC50

{"columns": ["Compound", "Measured metric", "Quantitative result"],
 "data": [
  ["O=C(Nc1ccc(F)cc1F)Nc1cc(-c2ccccc2-c2nnn[nH]2)ccc1N(CCC(F)(F)F)Cc1ccccn1 [Example 344]", "pIC50", 7.30]
]}

I = CC(C)CN(CC(C)C)c1ccc(-c2ccccc2-c2nnn[nH]2)cc1NC(=O)Nc1cc(C(F)(F)F)no1 [Example 398]
II = O=C(Nc1ccc(F)cc1F)Nc1cc(-c2ccccc2-c2nnn[nH]2)ccc1N(CCC(F)(F)F)Cc1ccc(OC(F)(F)F)cc1 [Example 504]
III = Cc1ccc(NC(=O)Nc2cc(-c3cc(F)ccc3C(=O)O)ccc2N(CC(C)C)C2CCC(C(F)(F)F)CC2)cc1 (stereo not shown) [Example 306]
IV = Cc1ccc(NC(=O)Nc2cc(-c3ccccc3C(=O)O)ccc2N(CC(C)C)C2CCOCC2)cc1 [Example 378]
Query string: Thanks in advance: please rank these 4 entries by pIC50, highest to lowest. Submit the labels in the order that the ranking request calls for.
Result string: II, I, III, IV

I = Cc1ccc(NC(=O)Nc2cc(-c3ccccc3-c3nnn[nH]3)ccc2N2CCC(c3ccccc3)C2)cc1 (racemic) [Example 367]
II = CCC(CC)N(CC(C)C)c1ccc(-c2cc(F)ccc2C(=O)O)cc1NC(=O)Nc1ccccc1F [Example 450]
Query string: Higher pIC50 between I and II ? Let me know the label of the one you choose.
Result string: II
